The measured values listed here are drawn from the supplement of paper PMC9732359.

Measured protein stability index of individual entries
assay: protein stability index of a GFP-peptide fusion (yeast GPS) (PSI 1-4); higher = more stable; sorted into four equal gates, so the index is relative within each strain; conditions: ubr1∆
API note: the answer field is a bare number with no unit suffix.

Known results for sequences:
# input-sequence, protein stability index
data = [
    ("DIAFVLNNLPYKNEDVT [YCS4]", 3),
    ("DKGLLPYAIMETANEIL [RPO31]", 2.25),
    ("ITSNHKSSVPGSAELRN [RPN3]", 2.63),
    ("DQMVVGWYHSHPGFGCW [RPN11]", 2.21),
    ("IYKPLLFEIVSNADTNQ [SRB8]", 1.49),
]

Fill blank: measured protein stability index of the sequence KLWAEIIVKILYYRPHI [GRR1] is ____.
1.46

# repeat for TIDWVEAGLQLCRQGHN [PRP8]
2.26

Try this sequence next: QSSLSKVDIPLEVVQYI [NUT2]
2.29

Also check VKKVVKEQTEAAKKSEK [RPL34A]
3.31

Same thing, different sequence: SLLLSSVKESTGMSSMS [SRB4]
1.22

How about DVLKDGENNINFQKASA [BRN1] ?
3.31

What do you have for SSQNNSELAPIEEHPTV [IRR1] ?
3.14
